System: human SMAD7 mRNA
test-method-notes: Dose-dependent inhibition of human SMAD7 mRNA expression in Hep3B cells (Example 3, Study 1 and 2)
Assay type: cell-based
applied-conditions: electroporation, Study 2 (740-20000 nM)
Strand notation (5' to 3'): a small letter for the sugar, then the base; units joined by * are phosphorothioate-linked, units joined directly phosphodiester-linked; [ ] holds rarer units or linkages, { } end groups; capitals alone tell only the bases. k = constrained ethyl (cEt); [5mC] = 5-methylcytosine; d = 2'-deoxy (DNA)
A collection of substances and their measured IC50

{"substance": "800010 (kG*kT*kT*dA*dT*dT*dT*dA*dA*dT*dT*dA*d[5mC]*k[5mC]*k[5mC]*kT; antisense) [compound 800010]", "system-tested": "human SMAD7 mRNA", "censoring-qualifier": "=", "IC50 / µM": 6}
{"substance": "799673 (antisense k[5mC]*kT*kG*dA*dT*dT*dA*dA*d[5mC]*dT*dT*dT*d[5mC]*k[5mC]*kT*kT) [compound 799673]", "system-tested": "human SMAD7 mRNA", "censoring-qualifier": "=", "IC50 / µM": 4}
{"substance": "829942 (kG*k[5mC]*kA*dT*d[5mC]*dT*dG*dG*dA*d[5mC]*dA*dG*dT*k[5mC]*kA*kG; antisense) [compound 829942]", "system-tested": "human SMAD7 mRNA", "censoring-qualifier": "<", "IC50 / µM": 0.7}
{"substance": "829956 (k[5mC]*k[5mC]*kT*dT*dG*dT*d[5mC]*dA*d[5mC]*d[5mC]*d[5mC]*dG*dT*k[5mC]*kT*kG; antisense) [compound 829956]", "system-tested": "human SMAD7 mRNA", "censoring-qualifier": "=", "IC50 / µM": 1}
{"substance": "830168 (antisense kA*kT*kG*d[5mC]*dT*dT*dT*dT*dA*d[5mC]*dA*d[5mC]*dA*k[5mC]*k[5mC]*k[5mC]) [compound 830168]", "system-tested": "human SMAD7 mRNA", "censoring-qualifier": "=", "IC50 / µM": 3}
{"substance": "799781 (kG*kT*k[5mC]*dA*dA*dT*dA*d[5mC]*dA*dT*dA*dT*dT*kT*kG*k[5mC]; antisense) [compound 799781]", "system-tested": "human SMAD7 mRNA", "censoring-qualifier": ">", "IC50 / µM": 20}

Where these numbers come from: patent US10517889B2
